Would you kindly list inhibition for each of these molecules?
target: Rac GTPase-activating protein 1 (Homo sapiens); test: blockers of MgcRacGAP-driven Rac1 GTP hydrolysis – biochemical, ADP Hunter fluorescence, primary and confirmatory, confirmation (AID 624330); settings: MgcRacGAP-stimulated Rac1 GTP hydrolysis, at 30 µM, active compounds read high, GST-tagged Rac1 F28L mutant substrate;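 also: fluorescence reports GDP produced by GAP-driven GTP hydrolysis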
Hit rate of the full screen: of about 340,000 compounds, about 2,100 (0.62%) were called active. Not all results are given here. Potency and affinity values are given separately.
One number for each entry, in %.

In: Reported inhibition for `Cc1ccc(-c2sc(C)nc2CC(=O)O)cc1` : what is it?
Out: 13.9

In: Ok, now O=C(COC(=O)C1CCC(=O)N1)Nc1ccc(Br)cc1 (configuration not stated)
Out: 15.9

In: Ok, now Cc1ccc(NC(=O)C(OC(=O)c2cnc(C)cn2)c2ccccc2)c([N+](=O)[O-])c1 (configuration not stated)
Out: 4.33

In: Ok, now `COc1ccc(-n2c(=O)c3c(C)c(C)sc3n(Cc3cccc(F)c3)c2=O)c(OC)c1`
Out: 9.42

In: Ok, now `N#C/C(=C\c1ccc(-c2ccc(C(=O)O)cc2)o1)c1nc2ccccc2[nH]1`
Out: 2.64

Each of the following entries comes with a recorded value; kindly state inhibition for each.
1. Brc1ccc2c(c1)OCCOCCOCCOCCOCCOCCO2
2. N#C/C(=C\c1cc([N+](=O)[O-])c(N2CCOCC2)cc1N1CCOCC1)c1nc2ccccc2[nH]1

Out:
1: 0.25; 2: 6.08

---

molecular target: Rac GTPase-activating protein 1 (Homo sapiens); assay: blockers of MgcRacGAP-driven Rac1 GTP hydrolysis – biochemical, ADP Hunter fluorescence, primary and confirmatory, confirmation (AID 624330); conditions: MgcRacGAP-stimulated Rac1 GTP hydrolysis, at 30 µM, active compounds read high, GST-tagged Rac1 F28L mutant substrate;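 also: fluorescence reports GDP produced by GAP-driven GTP hydrolysis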
Out of some 340,000 compounds screened, about 2,100 (0.62%) were called active. A selection follows. Potency and affinity values are given separately.
Measured property: inhibition

In: Reported inhibition for `O=C(CCl)Nc1sccc1C(=O)c1ccccc1` : what is it?
Out: 11.5% (inactive)

In: Ok, now COc1cccc(C(=O)N2CCN(C3CCC(c4ccccc4)CC3)CC2)c1 (stereo not given)
Out: 14.9% (inactive)

In: Ok, now `CCc1ccccc1S(=O)(=O)Cc1ccc(C(=O)NCc2cccs2)o1`
Out: 1.89% (inactive)

Each of the following entries comes with a recorded value; kindly state inhibition for each.
1. Cc1cccc(NC(=S)NCc2cccs2)c1
2. COc1ccccc1C(=O)OCC(=O)N1CCC(Cc2ccccc2)CC1
3. O=C(c1ccccc1)N1CCN(C2CCCCC2)CC1
4. O=C(Nc1ccccc1C(=O)O)c1cc(S(=O)(=O)N2CCOCC2)cs1
5. Cc1cc(C)c2c(c1)NC(c1cc3c(cc1Br)OCO3)C1CC=CC21 (stereo not given)

Out:
1: 9.05% (inactive); 2: 6.97% (inactive); 3: 44.8% (inactive); 4: 3.51% (inactive); 5: -0.13% (inactive)

Each of the following entries comes with a recorded value; kindly state inhibition for each.
1. O=C(CSc1nnc(-c2ccccc2)c(-c2ccccc2)n1)Nc1ccc(Br)cn1
2. COc1cc(/C=C/C(=O)OCC(=O)N2CCCc3ccccc32)ccc1OC(F)F

Out:
1. 4.25% (inactive)
2. 1.81% (inactive)
